biological target: human D2L receptor (Homo sapiens, UniProt P14416); construct: expressed in transfected cells; experiment: Fast dissociation, indirect assay ([3H]spiperone binding after pre-incubation with compound); details: compound at 4 times its IC50, 1 h pre-incubation at 25° C., then 5 min with 1 nM [3H]spiperone on filter
Sequence (P14416 whole entry): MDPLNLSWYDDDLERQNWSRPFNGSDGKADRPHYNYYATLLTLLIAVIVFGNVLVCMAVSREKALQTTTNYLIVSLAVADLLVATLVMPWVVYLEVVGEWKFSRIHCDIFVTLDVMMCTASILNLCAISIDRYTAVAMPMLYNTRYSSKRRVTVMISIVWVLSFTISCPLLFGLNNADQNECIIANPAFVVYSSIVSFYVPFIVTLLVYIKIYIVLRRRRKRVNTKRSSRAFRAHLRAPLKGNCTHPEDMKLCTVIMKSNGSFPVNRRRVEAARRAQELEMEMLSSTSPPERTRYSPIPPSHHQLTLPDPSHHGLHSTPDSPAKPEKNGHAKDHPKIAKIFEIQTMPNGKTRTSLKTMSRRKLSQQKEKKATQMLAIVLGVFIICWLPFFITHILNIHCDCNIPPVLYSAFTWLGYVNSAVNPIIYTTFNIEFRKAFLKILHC
# cutoff 80% applies to D2 dissociation ([3H]spiperone binding as % of total binding capacity); >= gives y, < gives n

# MOLECULE, CATEGORY_LABEL
data = [
    ("FC(F)(F)c1ncc(N2CCNCC2)cc1-c1ccccc1 [Example B4]", "n"),
    ("Cc1nc(C(F)(F)F)c(-c2ccccc2)cc1N1CCNCC1 [Example B8]", "y"),
    ("COc1nc(C(F)(F)F)c(-c2ccccc2)cc1N1CCNCC1 [Example B5]", "n"),
    ("COc1nc(C(F)(F)F)c(-c2ccc(F)cc2)cc1N1CCN(C(=O)OC(C)(C)C)CC1 [Example A16]", "y"),
    ("N#Cc1nc(N2CCNCC2)cc(-c2ccccc2)c1C(F)(F)F [Example B2]", "n"),
]

Exam item: # bool: D2 dissociation ([3H]spiperone binding as % of total binding capacity) of COc1nc(N2CCNCC2)cc(-c2ccccc2)c1C(F)(F)F [Example B3] >= 80%
Marked response: n

====

molecular target: human Dopamine D3 receptor (Homo sapiens); construct: expressed in transfected cells; host or cells: CHO cells (membranes); assay: In vitro binding affinity for human D3 receptor ([125I]iodosulpride)
Parameter: pIC50. Scope: all listed entries.
For clarity, pIC50 is expressed as the negative log10 of concentration in mol/L.

# COMPOUND, pIC50
measured = [
    ("FC(F)(F)c1ncc(N2CCNCC2)cc1-c1ccccc1 [Example B4]", 7.47),
]

Next up:
Exam item: Specify pIC50 for COc1nc(N2CCNCC2)cc(-c2ccccc2)c1C(F)(F)F [Example B3] and stop.
Marked response: 7.33

====

target: human Serotonin 5HT6 receptor (Homo sapiens, UniProt P50406); construct: expressed in transfected cells; host or cells: HEK cells (membranes); assay: In vitro binding affinity for human 5HT6 receptor ([3H]LSD); conditions: membranes of human 5HT6 receptor-transfected HEK cells, [3H]lysergic acid diethylamide; read-out: 5-HT6 binding pIC50 (converted)
Sequence (P50406 whole entry): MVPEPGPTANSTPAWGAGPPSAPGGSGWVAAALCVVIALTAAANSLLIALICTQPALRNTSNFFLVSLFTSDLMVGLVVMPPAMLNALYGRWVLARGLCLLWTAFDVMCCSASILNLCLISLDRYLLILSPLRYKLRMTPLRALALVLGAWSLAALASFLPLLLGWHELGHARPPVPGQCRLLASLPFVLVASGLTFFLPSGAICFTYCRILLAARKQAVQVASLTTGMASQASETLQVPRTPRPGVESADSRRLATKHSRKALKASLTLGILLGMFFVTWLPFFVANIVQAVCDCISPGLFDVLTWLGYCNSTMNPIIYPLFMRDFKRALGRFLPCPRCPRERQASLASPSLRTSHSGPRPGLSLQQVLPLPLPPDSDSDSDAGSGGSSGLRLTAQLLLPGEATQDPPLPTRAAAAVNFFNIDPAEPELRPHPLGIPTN
Sorting guide: entries reporting IC50 beneath 100 nM go in the label 1 pile, the rest go in the label 0 pile.

# COMPOUND, CATEGORY_LABEL
records = [
    ("N#Cc1nc(N2CCNCC2)cc(-c2ccccc2)c1C(F)(F)F [Example B2]", "label 1"),
]

Exam item: Record FC(F)(F)c1ncc(N2CCNCC2)cc1-c1ccccc1 [Example B4] : is its IC50 strictly below 100 nM?
Marked response: label 0

Exam item: Record COc1nc(C(F)(F)F)c(-c2ccc(F)cc2)cc1N1CCN(C(=O)OC(C)(C)C)CC1 [Example A16] : is its IC50 strictly below 100 nM?
Marked response: label 0

Exam item: Record N#Cc1nc(C(F)(F)F)c(-c2ccccc2)cc1N1CCNCC1 [Example B7] : is its IC50 strictly below 100 nM?
Marked response: label 0

Exam item: Record Fc1ccc(-c2cc(N3CCNCC3)ncc2C(F)(F)F)cc1 [Example B1] : is its IC50 strictly below 100 nM?
Marked response: label 0

Exam item: Record COc1nc(C(F)(F)F)c(-c2ccccc2)cc1N1CCNCC1 [Example B5] : is its IC50 strictly below 100 nM?
Marked response: label 1

Exam item: Record Cc1nc(C(F)(F)F)c(-c2ccccc2)cc1N1CCNCC1 [Example B8] : is its IC50 strictly below 100 nM?
Marked response: label 0

Exam item: Record COc1nc(C(F)(F)F)c(-c2ccc(F)cc2)cc1N1CCNCC1 [Example B6] : is its IC50 strictly below 100 nM?
Marked response: label 0

====

molecular target: human Dopamine D3 receptor (Homo sapiens, UniProt P35462); construct: expressed in transfected cells; host or cells: CHO cells (membranes); assay: In vitro binding affinity for human D3 receptor ([125I]iodosulpride); settings: membranes of human D3 receptor-transfected CHO cells, [125I]iodosulpride; read-out: D3 binding pIC50 (converted)
Sequence (P35462 whole entry): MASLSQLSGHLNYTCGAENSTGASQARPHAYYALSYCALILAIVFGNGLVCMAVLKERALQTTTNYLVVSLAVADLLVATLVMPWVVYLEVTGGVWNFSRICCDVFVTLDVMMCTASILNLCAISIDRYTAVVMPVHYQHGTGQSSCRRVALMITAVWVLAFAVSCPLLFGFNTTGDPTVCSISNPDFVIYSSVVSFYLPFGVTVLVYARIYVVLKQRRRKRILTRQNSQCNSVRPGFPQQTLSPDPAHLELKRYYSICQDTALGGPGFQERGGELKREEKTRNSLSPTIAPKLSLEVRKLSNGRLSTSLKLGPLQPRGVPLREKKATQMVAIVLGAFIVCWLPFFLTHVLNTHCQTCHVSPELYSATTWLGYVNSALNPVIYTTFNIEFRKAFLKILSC
Parameter: IC50. Scope: all listed entries.
Give just the numeric value; nM need not be written.

# STRUCTURE_SMILES_STRING, TEST_SYSTEM, IC50 (nM)
records = [
    ("N#Cc1nc(C(F)(F)F)c(-c2ccccc2)cc1N1CCNCC1", "human Dopamine D3 receptor (Homo sapiens, UniProt P35462)", 372),
    ("N#Cc1nc(N2CCNCC2)cc(-c2ccccc2)c1C(F)(F)F", "human Dopamine D3 receptor (Homo sapiens, UniProt P35462)", 10.7),
    ("COc1nc(C(F)(F)F)c(-c2ccc(F)cc2)cc1N1CCN(C(=O)OC(C)(C)C)CC1", "human Dopamine D3 receptor (Homo sapiens, UniProt P35462)", 2090),
]

Next up:
Exam item: Specify IC50 for Cc1nc(C(F)(F)F)c(-c2ccccc2)cc1N1CCNCC1 and stop.
Marked response: 2090

====

target: human Dopamine D2L receptor (Homo sapiens); construct: expressed in transfected cells; host or cells: CHO cells (membranes); assay: In vitro binding affinity for human D2L receptor ([3H]spiperone); conditions: membranes of human D2L receptor-transfected CHO cells, read-out: D2L binding pIC50 (converted)
Sorting guide: entries reporting IC50 beneath 500 nM go in the Condition met pile, the rest go in the Condition not met pile.

Illustrative cases are given below, each with its answer.
# MOLECULE, CATEGORY_LABEL
records = [
    ("Fc1ccc(-c2cc(N3CCNCC3)ncc2C(F)(F)F)cc1 [Example B1]", "Condition not met"),
    ("FC(F)(F)c1ncc(N2CCNCC2)cc1-c1ccccc1 [Example B4]", "Condition met"),
    ("Cc1nc(C(F)(F)F)c(-c2ccccc2)cc1N1CCNCC1 [Example B8]", "Condition not met"),
]

Exam item: Record COc1nc(C(F)(F)F)c(-c2ccc(F)cc2)cc1N1CCNCC1 [Example B6] : is its IC50 strictly below 500 nM?
Marked response: Condition met

Exam item: Record COc1nc(N2CCNCC2)cc(-c2ccccc2)c1C(F)(F)F [Example B3] : is its IC50 strictly below 500 nM?
Marked response: Condition met

Exam item: Record COc1nc(C(F)(F)F)c(-c2ccc(F)cc2)cc1N1CCN(C(=O)OC(C)(C)C)CC1 [Example A16] : is its IC50 strictly below 500 nM?
Marked response: Condition not met

====

molecular target: human Dopamine D2L receptor (Homo sapiens, UniProt P14416); construct: expressed in transfected cells; host or cells: CHO cells (membranes); assay: In vitro binding affinity for human D2L receptor ([3H]spiperone); settings: membranes of human D2L receptor-transfected CHO cells, read-out: D2L binding pIC50 (converted)
Parameter: IC50. Scope: all listed entries.
Give just the numeric value; nM need not be written.

Guide cases for IC50, answers given:
# STRUCTURE_SMILES_STRING, READOUT_KIND, TEST_RESULT
rows = [
    ("N#Cc1nc(N2CCNCC2)cc(-c2ccccc2)c1C(F)(F)F", "IC50", 129),
    ("COc1nc(C(F)(F)F)c(-c2ccccc2)cc1N1CCNCC1", "IC50", 204),
]

Exam item: Specify IC50 for N#Cc1nc(C(F)(F)F)c(-c2ccccc2)cc1N1CCNCC1 and stop.
Marked response: 3390
